System Name: Human immunodeficiency virus type 1 reverse transcriptase (Human immunodeficiency virus 1)
Protocol Summary: Inhibition of HIV1 RT using A5'-end 32P-labeled 24-mer primer/a48-mer template preincubated for 5 mins followed by 25 uM nucleotides addition measured after 2 mins by gel-based primer extension assay
Endpoint: IC50

compound=CC1(C)CC(=O)c2c(nc3c(c(C#N)cn3Cc3ccccc3)c2-c2ccccc2)C1 result="730 nM"

* * *

System Name: UniProtKB Q72547
Protocol Summary: Inhibition of HIV1 RT using A5'-end 32P-labeled 24-mer primer/a48-mer template preincubated for 5 mins followed by 10 uM nucleotides addition measured after 5 mins by gel-based primer extension assay
Endpoint: IC50 (nM)

compound=CC1(C)CC(=O)c2c(nc3c(c(C#N)cn3Cc3ccccc3)c2-c2ccccc2)C1 endpoint=IC50 result=960

* * *

pIC50 values for the molecules below.
System Name: Human immunodeficiency virus type 1 reverse transcriptase (Human immunodeficiency virus 1, UniProt Q72547, K103N)
pIC50: −log10 of the molar value.
Endpoint: pIC50

compound=CC1(C)CC(=O)c2c(nc3c(c(C#N)cn3Cc3ccccc3)c2-c2ccccc2)C1 result=5.04
compound=CC(=O)c1c(C)nc2c(c(C#N)cn2Cc2ccccc2)c1-c1ccc([N+](=O)[O-])cc1 result=4.82
compound=CCCCn1cc(C#N)c2c(-c3ccc(C(F)(F)F)cc3F)c3c(nc21)-c1ccccc1C3=O result=4.55

* * *

Protocol Summary: Cytotoxicity against HIV1 infected African green monkey Vero cells assessed as reduction in cell viability after 7 days by MTT assay
Type: cell-based
Experimental Conditions: chlorocebus sabaeus, HIV1 infected Vero cells
Endpoint: CC50 at 168 h

molecule="Cc1ccnc2c1NC(=O)c1cccnc1N2C1CC1 [NEVIRAPINE]" endpoint="CC50 at 168 h" result="> 100 µM"

* * *

System: CCRF-CEM
Protocol Summary: Cytotoxicity against HIV1 infected human CEM cells assessed as reduction in cell viability after 7 days by MTT assay
Format: cell-based
Experimental Conditions: ccrf-cem, 168 h
# maps each entry to its CC50
Endpoint: CC50

compound=CC1(C)CC(=O)c2cc3c(C#N)cn(Cc4ccccc4)c3nc2C1 system_name=CCRF-CEM result="3.7 µM"
compound=C=CCn1cc(C#N)c2cc(C#N)cnc21 system_name=CCRF-CEM result="> 100 µM"
compound=Cc1ccc(-c2cnc3c(c2)c(C#N)cn3Cc2ccccc2)cc1 system_name=CCRF-CEM result="> 100 µM"
compound=N#Cc1cn(Cc2ccccc2)c2ncc(Br)cc12 system_name=CCRF-CEM result="> 100 µM"
compound=CC1(C)CC(=O)c2c(nc3c(c(C#N)cn3Cc3ccccc3)c2-c2ccccc2)C1 system_name=CCRF-CEM result="> 100 µM"
compound=O=C1Nc2ccc(Cl)cc2[C@@](C#CC2CC2)(C(F)(F)F)O1 system_name=CCRF-CEM result="> 100 µM"
compound=CC(C)(C)n1cc(C#N)c2cc(C=O)cnc21 system_name=CCRF-CEM result="> 100 µM"
compound=CC(=O)c1c(C)nc2c(c(C#N)cn2Cc2ccccc2)c1-c1ccc([N+](=O)[O-])cc1 system_name=CCRF-CEM result="> 100 µM"
compound=CCCCn1cc(C#N)c2c(-c3ccc(C(F)(F)F)cc3F)c3c(nc21)-c1ccccc1C3=O system_name=CCRF-CEM result="48 µM"

* * *

IC50 reference
System Name: Human immunodeficiency virus type 1 reverse transcriptase (Human immunodeficiency virus 1, UniProt Q72547)
Protocol Summary: Inhibition of HIV1 RT using 17-mer DNA/Alexa Fluor 488 5'-end labeled DNA/Alexa Fluor 555-aha-dUTP as primer/template/substrate preincubated for 10 mins followed substarte addition measured after 30 mins by FRET assay
Endpoint: IC50

compound=Cc1ccc(-c2cnc3c(c2)c(C#N)cn3Cc2ccccc2)cc1 result="> 100 µM"
compound=CCCc1c2c(nc3c1c(C#N)cn3C1CCCCC1)CCC2=O result="> 100 µM"
compound=C=CCn1cc(C#N)c2cc(C#N)cnc21 result="> 100 µM"
